- TESTED_ON: Beta Secretase enzyme (BACE) (Homo sapiens)
- Sequence (P56817 46-501): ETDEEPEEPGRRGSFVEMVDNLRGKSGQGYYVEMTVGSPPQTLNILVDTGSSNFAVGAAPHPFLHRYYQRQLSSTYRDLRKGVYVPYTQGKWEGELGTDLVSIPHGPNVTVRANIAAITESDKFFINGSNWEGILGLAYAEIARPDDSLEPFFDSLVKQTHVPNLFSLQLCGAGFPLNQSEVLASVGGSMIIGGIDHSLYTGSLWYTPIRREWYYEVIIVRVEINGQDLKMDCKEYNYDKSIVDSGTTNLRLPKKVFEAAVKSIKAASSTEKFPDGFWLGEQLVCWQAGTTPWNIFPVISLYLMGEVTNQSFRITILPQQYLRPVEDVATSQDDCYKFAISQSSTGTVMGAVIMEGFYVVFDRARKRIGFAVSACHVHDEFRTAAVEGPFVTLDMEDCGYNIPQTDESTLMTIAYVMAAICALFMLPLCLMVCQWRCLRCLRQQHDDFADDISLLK
- EXPERIMENT_SUMMARY: In vitro enzymatic BACE FRET (fluorescence resonance energy transfer) assay
- Format: biochemical
- ASSAY_CONDITIONS: BACE enzyme assay IC50; read-out: BACE1 FRET assay
pIC50: −log10 of the molar value.
ASSAY_ENDPOINT: pIC50

{"SMILES_ENTRY": "CC(=O)N[C@@H](Cc1cc(F)cc(-c2cncs2)c1)[C@H](O)CN[C@H]1CC2(CCC2)Oc2ncc(CC(C)(C)C)cc21", "ASSAY_ENDPOINT": "pIC50", "VALUE_OBSERVED": 8.30}
{"SMILES_ENTRY": "CO[C@H](C)C(=O)N[C@@H](Cc1cc(F)cc(F)c1)[C@H](O)CN[C@H]1CC2(CCC2)Oc2cnc(CC(C)C)cc21", "ASSAY_ENDPOINT": "pIC50", "VALUE_OBSERVED": 8.05}
{"SMILES_ENTRY": "COCC(=O)N[C@@H](Cc1ccc(-c2nccs2)c(F)c1)[C@H](O)CN[C@H]1CC2(CCC2)Oc2ncc(CC(C)(C)C)cc21", "ASSAY_ENDPOINT": "pIC50", "VALUE_OBSERVED": 7.41}
{"SMILES_ENTRY": "CO[C@H](C)C(=O)N[C@@H](Cc1cc(F)cc(F)c1)[C@H](O)CN[C@H]1CC2(CCC2)Oc2c1cc(CC(C)C)nc2-c1ccncc1", "ASSAY_ENDPOINT": "pIC50", "VALUE_OBSERVED": 8.10}
{"SMILES_ENTRY": "CO[C@H](C)C(=O)N[C@@H](Cc1cc(F)cc(-c2nccs2)c1)[C@H](O)CN[C@H]1CC2(CCC2)Oc2cnc(CC(C)(C)F)cc21", "ASSAY_ENDPOINT": "pIC50", "VALUE_OBSERVED": 7.31}
{"SMILES_ENTRY": "CCC(=O)N[C@@H](Cc1ccc2c(c1)OCO2)[C@H](O)CN[C@H]1CC2(CCC2)Oc2ncc(CC(C)C)cc21", "ASSAY_ENDPOINT": "pIC50", "VALUE_OBSERVED": 7.36}

###

- TESTED_ON: Beta Secretase enzyme (BACE) (Homo sapiens)
- EXPERIMENT_SUMMARY: In vitro enzymatic BACE FRET (fluorescence resonance energy transfer) assay;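 also: fluorescence read after 1 h with 50 nM quenched peptide substrate spanning the BACE cleavage site, in pH 4.2 acetate buffer containing 10% DMSO and nonionic detergent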
- Assay type: biochemical
- ASSAY_CONDITIONS: BACE enzyme assay, IC50's in uM; read-out: BACE1 FRET assay

{"MOLECULE": "CC(C)(C)Cc1cnc2c(c1)[C@@H](NC[C@@H](O)[C@H](Cc1ccc3c(c1)OCO3)NC(=O)CC1CCS(=O)(=O)C1)CC1(CCC1)O2 (stereo partly drawn)", "IC50 [µM]": 0.048}
{"MOLECULE": "COC(OC)C(=O)N[C@@H](Cc1cc(F)cc(-c2nccs2)c1)[C@H](O)CN[C@H]1CC2(CCC2)Oc2ncc(CC(C)(C)C)cc21", "IC50 [µM]": 0.007}
{"MOLECULE": "CO[C@H](C)C(=O)N[C@@H](Cc1cccc(-c2ncco2)c1)[C@H](O)CN[C@H]1CC2(CCC2)Oc2ncc(CC(C)(C)C)cc21", "IC50 [µM]": 0.013}
